target: Gal3S(b1-4)GlcNAc6S; assay: glycan array binding signal (z-score within array); higher = stronger binding; conditions: glycan notation: IUPAC condensed, linker removed
The full list was thinned out, with the strongest signals kept by preference.
Below is a list of entries, each paired with its recorded glycan array binding signal (z-score) value.
Readout kind: glycan array binding signal (z-score)

binder="SLR2P2A3 (Tachypleus tridentatus), TAL2_TACTR (protein) MEKGTPPTHDSDNWMGRAKKIGNGGWNQFQFLFFDPNGYLYAVSKDKLYKASPPQSDTDNWIARATEIGSGGWSGSKFLFFHPNGYLYAVHGQRLYKALPPVSNQD" measurement=-0.09
binder="Gal 1 (Canis lupus) (protein) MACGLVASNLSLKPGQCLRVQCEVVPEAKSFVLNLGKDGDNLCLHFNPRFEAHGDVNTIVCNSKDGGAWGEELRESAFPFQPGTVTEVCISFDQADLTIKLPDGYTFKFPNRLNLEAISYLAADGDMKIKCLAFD" measurement=4.69
